Recorded values, source ChEMBL document CHEMBL5120960.

- system.under.test: P2X purinoceptor 7 (Homo sapiens)
- Sequence (Q99572 whole entry): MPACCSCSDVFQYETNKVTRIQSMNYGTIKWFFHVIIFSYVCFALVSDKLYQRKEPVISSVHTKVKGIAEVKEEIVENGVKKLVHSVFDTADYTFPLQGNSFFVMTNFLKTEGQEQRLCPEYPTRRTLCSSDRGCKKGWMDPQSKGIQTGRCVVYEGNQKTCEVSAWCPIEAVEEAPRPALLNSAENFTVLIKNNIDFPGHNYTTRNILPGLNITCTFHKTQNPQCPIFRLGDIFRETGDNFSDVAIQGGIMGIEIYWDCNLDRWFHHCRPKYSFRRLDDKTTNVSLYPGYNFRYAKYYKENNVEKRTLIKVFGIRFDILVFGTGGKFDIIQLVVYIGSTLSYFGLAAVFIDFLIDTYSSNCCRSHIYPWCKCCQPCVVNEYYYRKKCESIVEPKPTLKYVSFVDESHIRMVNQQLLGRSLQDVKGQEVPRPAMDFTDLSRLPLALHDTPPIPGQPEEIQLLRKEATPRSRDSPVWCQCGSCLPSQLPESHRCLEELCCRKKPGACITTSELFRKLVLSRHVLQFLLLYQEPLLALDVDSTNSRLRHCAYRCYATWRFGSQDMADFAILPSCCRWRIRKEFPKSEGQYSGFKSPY
- assay.text: Antagonist activity at human P2X7R expressing HEK293 cells assessed as reduction in intracellular Ca2+ influx pretreated with Fluo-4 for 1 hr followed by compound addition and further incubated for 30 mins in presence of ATP by multimode plate reader analysis
- Type: cell-based
attribute.measured: IC50

Here are 2 molecules together with their reported answers.
{"smiles.string": "Nc1ncnc2c1ncn2[C@@H]1O[C@H](COP(=O)(O)OP(=O)(O)OP(=O)(O)O)[C@@H](OC(=O)c2cccc3ccccc23)[C@H]1OC(=O)c1cccc2ccccc12", "system.under.test": "P2X purinoceptor 7 (Homo sapiens)", "attribute.measured": "IC50", "endpoint.value": "> 100 µM"}
{"smiles.string": "COc1ccc(C(=O)O[C@@H]2[C@H](OC(=O)c3ccc(OC)cc3)[C@@H](COP(=O)(O)OP(=O)(O)OP(=O)(O)O)O[C@H]2n2cnc3c(N)ncnc32)cc1", "system.under.test": "P2X purinoceptor 7 (Homo sapiens)", "attribute.measured": "IC50", "endpoint.value": "> 100 µM"}

Tell me the measured IC50 of Nc1ncnc2c1ncn2[C@@H]1O[C@H](COP(=O)(O)OP(=O)(O)OP(=O)(O)O)[C@@H](OC(=O)c2ccccc2)[C@H]1OC(=O)c1ccccc1 , please.
> 100 µM

* * *

- system.under.test: UniProt Q99572
- assay.text: […] activity at human P2X7R expressing HEK293 cells assessed as reduction in intracellular Ca2+ influx pretreated with Fluo-4 for 1 hr followed by compound addition and further incubated for 30 mins in presence of ATP by multimode plate reader analysis
- Type: cell-based
attribute.measured: EC50 (µM)
Give bare numbers, in µM.

Tell me the measured EC50 of Nc1ncnc2c1ncn2[C@@H]1O[C@H](COP(=O)(O)OP(=O)(O)OP(=O)(O)O)[C@@H](OC(=O)c2cccc3ccccc23)[C@H]1OC(=O)c1cccc2ccccc12 , please.
16.6

* * *

- system.under.test: P2X purinoceptor 4 (Homo sapiens)
- Sequence (Q99571 whole entry): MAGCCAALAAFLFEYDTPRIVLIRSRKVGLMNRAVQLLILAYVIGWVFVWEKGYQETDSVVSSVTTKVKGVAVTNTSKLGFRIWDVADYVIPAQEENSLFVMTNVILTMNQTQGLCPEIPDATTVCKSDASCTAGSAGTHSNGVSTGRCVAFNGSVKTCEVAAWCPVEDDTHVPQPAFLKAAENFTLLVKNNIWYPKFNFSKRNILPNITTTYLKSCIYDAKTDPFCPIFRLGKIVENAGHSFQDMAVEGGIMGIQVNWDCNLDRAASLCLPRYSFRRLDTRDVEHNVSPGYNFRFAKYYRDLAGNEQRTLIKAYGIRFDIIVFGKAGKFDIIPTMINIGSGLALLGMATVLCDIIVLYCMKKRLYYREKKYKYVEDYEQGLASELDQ
- assay.text: […] activity at human P2X4R expressing HEK293 cells assessed as reduction in intracellular Ca2+ influx pretreated with Fluo-4 for 1 hr followed by compound addition and further incubated for 30 mins in presence of ATP by multimode plate reader analysis
- Format: cell-based
pIC50: −log10 of the molar value.
Exercise: state measured pIC50 for each of the compounds provided.

Here are 4 compounds together with their reported answers.
{"smiles.string": "O=P(O)(O)OP(=O)(O)OP(=O)(O)OC[C@H]1O[C@@H](n2cnc3c(S)ncnc32)[C@H](O)[C@@H]1O", "pIC50": "< 4.00"}
{"smiles.string": "O=P(O)(O)OP(=O)(O)OP(=O)(O)OC[C@H]1O[C@@H](n2cnc3c2ncn2ccnc32)[C@H](O)[C@@H]1O", "pIC50": "< 4.00"}
{"smiles.string": "O=P(O)(O)OP(=O)(O)OP(=O)(O)OC[C@H]1O[C@@H](n2cnc3c(Cl)ncnc32)[C@H](O)[C@@H]1O", "pIC50": "< 4.00"}
{"smiles.string": "CNc1ncnc2c1ncn2[C@@H]1O[C@H](COP(=O)(O)OP(=O)(O)OP(=O)(O)O)[C@@H](O)[C@H]1O", "pIC50": "< 4.00"}

List the reported pIC50 of each compound below.
1. [N-]=[N+]=Nc1nc2c(N)ncnc2n1[C@@H]1O[C@H](COP(=O)(O)OP(=O)(O)OP(=O)(O)O)[C@@H](O)[C@H]1O
2. Nc1ncnc2c1ncn2[C@@H]1O[C@H](COP(=O)(O)OP(=O)(O)OP(=O)(O)O)[C@@H](O)[C@H]1N
3. O=c1[nH]c2cncnc2n1[C@@H]1O[C@H](COP(=O)(O)OP(=O)(O)OP(=O)(O)O)[C@@H](O)[C@H]1O
4. CO[C@@H]1[C@H](O)[C@@H](COP(=O)(O)OP(=O)(O)OP(=O)(O)O)O[C@H]1n1cnc2c(N)ncnc21
5. O=P(O)(O)OP(=O)(O)OP(=O)(O)OC[C@H]1O[C@@H](n2cnc3c(Nc4ccccc4)ncnc32)[C@H](O)[C@@H]1O
6. CCCCNc1ncnc2c1ncn2[C@@H]1O[C@H](COP(=O)(O)OP(=O)(O)OP(=O)(O)O)[C@@H](O)[C@H]1O

1. < 4.00
2. < 4.00
3. < 4.00
4. < 4.00
5. 6.05
6. < 4.00
